Tested on: Male Sprague-Dawley rats
Type: in vivo
Measurement conditions: rat, intraperitoneal, 30 μg/kg, 3 hr feeding period, vs saline controls; IA means inactive
Observable: % FEEDING INHIBITION 3 hr

Substance	% FEEDING INHIBITION 3 hr
iBuOCO-Tyr(SO3 H)-Ahx-Gly-Trp-Ahx-Asp-Phe-NH2	100%

// batch mode: one % FEEDING INHIBITION 3 hr value per listed entry
1. iBuOCO-Tyr(SO3 H)-Ahx-Gly-Trp-Ahx-Asp-MePhe-NH2
2. H-Asp-Tyr(SO3 H)-Ahx-Gly-Trp-Ahx-Asp-Phe-NH2

Result string:
100%
27%

// batch mode: one % FEEDING INHIBITION 3 hr value per listed entry
1. Suc-Tyr(SO3 H)-Ahx-Gly-Trp-Ahx-Asp-Phe-NH2
2. H-Asp-Tyr(SO3 H)-Met-Gly-Trp-Ahx-Asp-Phe-NH2
3. Hpp(SO3 sH)-Ahx-Gly-Trp-Ahx-Asp-MePhe-NH2 [Hpp(SO3 H)-Ahx-Gly-Trp-Ahx-Asp-MePhe-NH2]
4. Suc-Tyr(SO3 ° H)-Ahx-Gly-Trp-Ahx-Asp-MePhe-NH2
5. Hpp(SO3 H)-Ahx-Gly-Trp-Ahx-Asp-Phe-NH2
6. Suc-Tyr(SO3 H)-Ile-Gly-Trp-Ahx-Asp-MePhe-NH2
7. Hpp(SO3 sH)-Ile-Gly-Trp-Ahx-Asp-MePhe-NH2 [Hpp(SO3 H)-Ile-Gly-Trp-Ahx-Asp-MePhe-NH2]

Result string:
97%
23%
96%
98%
99%
100%
100%
